I'd be grateful if you could share measured A/G ratio for these entries.
Conditions: cynomolgus monkey, in vivo, sc, 35 mg/kg
Answer field: number only, no words.

Answer with the recorded A/G ratio for the substance listed here: 1198623 (CTAAGTAAGGTTTCCC; modified gapmer, further chemistry not given here) [compound 1198623]
1.4

Answer with the recorded A/G ratio for the substance listed here: 1198728 (TATTAGAGTATGTGGC; modified gapmer, further chemistry not given here) [compound 1198728]
1.3

Provide measured A/G ratio value, entry: 1198439 (AGTGTATGTCAGAAGA; sugar, 5-methylcytosine, phosphorothioate modifications, further chemistry not given here) [compound 1198439]
1.4

Retrieve A/G ratio measured for 1197270 (TTAAAGTGTATGTCAG; cEt gapmer with 2'-OMe nucleoside, phosphorothioate, further chemistry not given here) [compound 1197270] and print it.
1.2

---

System: Yap1 mRNA
Test: Dose-dependent inhibition of human Yap1 in A-431 cells (Example 7, 10,000 cells per well, RTS36584)
Format: cell-based
Conditions: Table 57, A-431 cells 10,000 cells per well, free uptake
Strand notation (5' to 3'): a small letter for the sugar, then the base; units joined by * are phosphorothioate-linked, units joined directly phosphodiester-linked; [ ] holds rarer units or linkages, { } end groups; capitals alone tell only the bases. k = constrained ethyl (cEt); [5mC] = 5-methylcytosine; d = 2'-deoxy (DNA)
Assignment: determine reported pIC50 for the given substances.
Friendly reminder that pIC50 comes from taking -log10 of the concentration in mol/L.

Dear colleague, please send me the reported pIC50 for 958551 (k[5mC]*kT*k[5mC]*d[5mC]*dT*dG*dT*dA*dG*dA*d[5mC]*dA*d[5mC]*kA*kT*kA; antisense) [compound 958551] when you can.
6.70

Output pIC50 of 958546 (k[5mC]*kA*kT*dA*d[5mC]*dT*d[5mC]*dT*dA*dG*dT*dT*dA*k[5mC]*kA*kT; antisense) [compound 958546]
6.70

Item 958761 (kA*kG*kT*d[5mC]*dT*d[5mC]*dA*dA*d[5mC]*dA*dA*d[5mC]*d[5mC]*kT*kT*k[5mC]; antisense) [compound 958761] : provide pIC50
6.70

Input 958556 (k[5mC]*kA*kA*d[5mC]*d[5mC]*dA*dA*d[5mC]*dT*dA*dT*dT*dA*k[5mC]*kT*kT; antisense) [compound 958556] , output reported pIC50.
6.30

Tell me measured pIC50 for 958731 (kG*k[5mC]*kT*d[5mC]*dT*dG*dT*d[5mC]*dA*dG*dT*dT*dA*kT*k[5mC]*k[5mC]; antisense) [compound 958731] please.
7.00

Name the recorded pIC50 of the substance listed here: 958781 (kG*kT*k[5mC]*dA*dT*d[5mC]*dT*dA*dT*dG*dT*dG*dT*k[5mC]*k[5mC]*kT; antisense) [compound 958781]
7.00

Look up and state reported pIC50 for 958486 (kT*kT*kA*dG*dA*dG*d[5mC]*d[5mC]*dA*dA*d[5mC]*dT*dG*kT*kG*kA; antisense) [compound 958486]
6.70

Read the entry 958526 (kA*kG*kT*dA*dA*dG*dA*dA*d[5mC]*dA*dA*dT*d[5mC]*kT*kT*kG; antisense) [compound 958526] and write its reported pIC50.
6.70

Give a short answer stating reported pIC50 for 958466 (kG*kT*k[5mC]*dA*dT*dT*dA*dA*dG*dG*dA*dT*dG*kT*k[5mC]*kA; antisense) [compound 958466] .
6.52

Give the measured pIC50 for 958491 (kA*k[5mC]*kT*dA*dA*dA*dT*dG*d[5mC]*dT*dG*dT*dG*kA*k[5mC]*kA; antisense) [compound 958491]
7.00

Output measured pIC50 for this item: 958481 (kG*k[5mC]*kA*dA*d[5mC]*dT*dG*dG*d[5mC]*dT*dT*dA*dT*kG*kG*kA; antisense) [compound 958481]
7.00

Give reported pIC50 value for 715483 (k[5mC]*kT*k[5mC]*dT*dT*dT*dG*dG*dA*dA*dA*d[5mC]*d[5mC]*kA*kT*kT) [compound 715483]
7.00

Look up and state reported pIC50 for 958786 (kT*kA*kT*dG*dT*d[5mC]*d[5mC]*dT*dA*d[5mC]*dT*dT*dT*k[5mC]*k[5mC]*k[5mC]; antisense) [compound 958786]
6.52

Output pIC50 of 958506 (kG*k[5mC]*kA*dG*dA*dT*dA*dA*dT*d[5mC]*dG*dA*dG*kA*kT*kT; antisense) [compound 958506]
7.00

Item 958686 (k[5mC]*kG*k[5mC]*dA*dA*dT*dA*dT*dA*dG*dT*d[5mC]*dT*kA*kT*kA; antisense) [compound 958686] : provide pIC50
7.00

Please list pIC50 recorded for the substance 958531 (kG*kT*kA*dG*dG*dA*dG*d[5mC]*dA*dA*dG*dT*d[5mC]*kT*kT*kG; antisense) [compound 958531]
7.00

Note down pIC50 recorded for 958541 (kG*kT*kA*dT*dT*d[5mC]*dT*dA*dT*d[5mC]*d[5mC]*dA*dG*kG*kG*kT; antisense) [compound 958541]
7.00

For the substance 958616 (kG*kG*kT*dG*dG*dT*d[5mC]*dT*dT*dG*dT*dT*d[5mC]*kT*kT*kA; antisense) [compound 958616] , give its reported pIC50.
7.00

Output pIC50 of 958451 (antisense k[5mC]*kA*k[5mC]*dG*dA*dT*d[5mC]*dT*dG*dA*dT*dG*d[5mC]*k[5mC]*k[5mC]*kG) [compound 958451]
6.70
